biological target: T1, recombinant mouse DLL4 (mouse, UniProt Q9JI71 27-532); experiment: ProteOn off-rate screen, periplasmic extract, mDLL4 on chip
T1 construct: extracellular domain; also called rmDLL4; mDLL4; not shown: C-terminal His tag
T1 sequence (Q9JI71 27-532): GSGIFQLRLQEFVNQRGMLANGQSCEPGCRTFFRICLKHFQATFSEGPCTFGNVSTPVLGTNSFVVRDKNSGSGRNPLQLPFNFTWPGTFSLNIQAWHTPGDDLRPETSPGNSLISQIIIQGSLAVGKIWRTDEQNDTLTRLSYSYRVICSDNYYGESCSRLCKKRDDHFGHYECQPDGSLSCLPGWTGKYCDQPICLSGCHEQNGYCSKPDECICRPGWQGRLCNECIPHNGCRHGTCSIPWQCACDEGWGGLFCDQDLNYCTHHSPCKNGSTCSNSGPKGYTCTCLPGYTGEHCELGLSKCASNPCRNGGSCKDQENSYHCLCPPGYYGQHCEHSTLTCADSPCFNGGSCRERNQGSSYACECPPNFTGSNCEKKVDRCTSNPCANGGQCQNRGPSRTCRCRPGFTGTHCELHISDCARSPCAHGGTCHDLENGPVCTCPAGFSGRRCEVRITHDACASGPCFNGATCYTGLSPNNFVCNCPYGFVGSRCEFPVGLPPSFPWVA
# reported fold (off-rate improvement over DLLBII101G08); entries follow
reported-endpoint: fold (off-rate improvement over DLLBII101G08) (fold)

binder: DLLBII129D08 (VHH, not shown: C-terminal c-myc tag and (His)6 tag) VHH: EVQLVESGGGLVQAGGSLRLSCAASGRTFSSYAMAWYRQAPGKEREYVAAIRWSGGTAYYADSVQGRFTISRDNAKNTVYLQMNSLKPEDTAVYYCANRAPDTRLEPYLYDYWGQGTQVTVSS
measurement-units: fold
result: 35

binder: DLLBII129H04 (VHH) VHH: EVQLVESRGGLVQAGGSLRLSCAASGRTFSSYAMAWFRQAPGKEREYVAAIRWSGGTAYYADSVQGRFTISRDNAKNTVYLQMNSLKPEDTAVYYCANRAPDTRLEPYLYDHWGQGTQVTVSS
measurement-units: fold
result: 27

binder: DLLBII129D01 (VHH) VHH: EVQLVESGGGLVQAGGSLRLSCAASGRTFSSYAMAWFRQAPGKEREYVAAIRWSGGTAYYADSVQSRFTITRDNAKNTVYLQMNSLKPEDTAVYYCANRAPDTRLEPYLYDHWGQGTQVTVSS
measurement-units: fold
result: 26

binder: DLLBII129E11 (VHH, not shown: C-terminal c-myc tag and (His)6 tag) VHH: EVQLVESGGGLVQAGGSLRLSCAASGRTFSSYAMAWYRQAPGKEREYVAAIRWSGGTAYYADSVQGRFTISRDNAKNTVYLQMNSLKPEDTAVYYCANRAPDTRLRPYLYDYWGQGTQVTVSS
measurement-units: fold
result: 26

binder: DLLBII130B03 (VHH, not shown: C-terminal c-myc tag and (His)6 tag) VHH: EVQLVESGGGLVQAGGSLRLSCAASGRTFSSYAMAWYRQAPGKEREYVAAIRWSGGTAYYADSVQGRFTISRDNAKNTVYLQMNSLKPEDTAVYYCANRAPDTRLAPYLYDYWGQGTQVTVSS
measurement-units: fold
result: 20

binder: DLLBII129H05 (VHH) VHH: EVQLVESGGGLVQAGGSLRLSCAASGRTFSSYAMAWYRLAPGKEREYVAAIRWSGGTAYYADSVQGRFTISRDNAKNTVYLQMNSLKPEDTAVYYCANRAPDTRLGPYLYDYWGQGTQVTVSS
measurement-units: fold
result: 19

binder: DLLBII129G10 (VHH) VHH: EVQLVESGGGLVQAGGSLRLSCAASGRTFSSYAMAWYRQAPGKEREYVAAIRWSGGTAYYADSVQSRFTISRDNAKNTVYLQMNSLKPEDTAVYYCANRAPDTRLEPYEYDHWGQGTQVTVSS
measurement-units: fold
result: 26

binder: DLLBII130B02 (VHH) VHH: EVQLVESGGGLVQAGGSLRLSCAASGRTFSSYAMAWFRQAPGKEREYVAAIRWSGGTAYYADSVQGRFTISRDNAKNTVYLQMYSLKPEDTAVYYCANRAPDTRLAPYLYDHWGQGTQVTVSS
measurement-units: fold
result: 17

binder: DLLBII130E03 (VHH) VHH: EVQLVESGGGLVQAGGSLRLSCAASGRTFSSYAMAWYRQAPGKEREYVAAIRWSGGTAYYADSVQGRFTISRDNAKNTVYLQMNSLKPEDTAVYYCANRAPDTRLEPYEYDHWGQGTQVTVSS
measurement-units: fold
result: 18

binder: DLLBII129G09 (VHH) VHH: EVQLVESGGGLVQAGGSLRLSCAASGRTFSSYAMAWYRQAPGKEREYVAAIRWSGETAYYADSVQGRFTISRDNAKNTVYLQMNSLKPEDTAVYYCANRAPDTRLEPYLYDHWGQGTQVTVSS
measurement-units: fold
result: 20

binder: DLLBII130A05 (VHH) VHH: EVQLVESGGGLVQAGGSLRLSCAASGRTFSSYAMAWYRQAPGKEREYVAAIRWSGGTAYYADSVQGRFTISRDNAKNTVYLQMNSLKPEDTAVYYCANRAPDTRLGPYLYDHWGQGTQVTVSS
measurement-units: fold
result: 17

binder: DLLBII130D06 (VHH) VHH: EVQLVESGGGLVQAGGSLRLSCSASGRTFSSYAMAWYRQAPGKEREYVAAIRWSGETAYYADSVQGRFTISRDNAKNTVYLQMNSLKPEDTAVYYCANRAPDTRLEPYLYDHWGQGTQVTVSS
measurement-units: fold
result: 16

binder: DLLBII129H02 (VHH) VHH: EVQLVESGGGLVQAGGSLRLSCAASGRTFSSYAMAWYRQAPGKEREYVAAIRWSGGTAYYADSVQGRFTISRDNAKNTVYLQMNSLKPEDTAVYYCANRAPDTRLRPYEYDYWGQGTQVTVSS
measurement-units: fold
result: 19

binder: DLLBII129A03 (VHH, not shown: C-terminal c-myc tag and (His)6 tag) VHH: EVQLVESGGGLVQAGGSLRLSCAASGRTFSSYAMAWFRQAPGKEREYVAAIRWSGGTAYYADSVQGRFTISRDNAKNTVYLQMNSLRPEDTAVYYCANRAPDTRLRPYLYDYWGQGTQVTVSS
measurement-units: fold
result: 18
